test: adipocyte viability effects, profiling panel, cell-based, 3T3-L1 adipocytes, calcein-AM fluorescence, 48 h, basal (AID 1163); settings: 3T3-L1 adipocytes viability, higher = more signal
Please provide measured z-score for the entries that follow.
One number for each entry.

List reported z-score for each of these compounds:
1. CC(=O)OC[C@H]1O[C@H](CC=NOCC[C@@H]2C=C[C@H](OC(C)=O)[C@@H](COC(C)=O)O2)C=C[C@@H]1OC(C)=O
2. CC=CC1=C(CO)[C@H](O)[C@H]2O[C@H]2[C@@H]1O
3. C#CCCCON=C1C[C@@H](O)[C@@H](O)[C@@H]2[C@@H]3C(=O)N([C@@H](C)c4ccccc4)C(=O)[C@@H]3CC[C@@H]12
4. CCOC(=O)[C@H](Cc1ccccc1)NC(=O)CCC1CC(OC(=O)NCCc2ccc(F)cc2)CC2(CCCC(COC(=O)NCc3cccc(C(F)(F)F)c3)O2)O1 (stereo not given in full)
5. C[C@H]1CC[C@@H](C(=O)O)N[C@@H]1c1cccc(N2CCCC2=O)c1
6. CC(CCC(=O)OC[C@H]1O[C@H](C#Cc2ccccc2)C=C[C@@H]1Oc1ccc(C)cc1)=NO[C@H](C)c1cn([C@@H]2COC[C@H]2O)nn1
7. CCOC(=O)[C@H](Cc1ccccc1)NC(=O)CCC1CC(OC(=O)NCc2ccc3c(c2)OCO3)CC2(CCCC(COC(=O)NCCOC)O2)O1 (stereo not given in full)

Given back:
1. -0.282
2. 0.309
3. -0.532
4. 0.15
5. -0.115
6. 0.0119
7. -0.182

Below is a list of compounds. For each, state its recorded z-score.
1. CCOC(=O)NN=C1C[C@@H](O)[C@@H](O)[C@@H]2[C@@H]3C(=O)N(C[C@@H]4CCCO4)C(=O)[C@@H]3CC[C@H]12
2. COC(=O)CC=C[C@@H](C)[C@@H](C=NOC(C)CN1CCCCc2nc(C)c(C)cc21)OC (stereo not given in full)
3. O=C1C2=CC[C@H]3C(=O)N(Cc4ccccc4)C(=O)[C@H]3[C@H]2[C@H](O)[C@@H]2O[C@H]12

Given back:
1. 0.127
2. -0.213
3. -0.238

* * *

assay: basal RPMI8226 viability, no added stimulus, profiling panel, cell-based, calcein-AM fluorescence, 48 h, PK04 Diversity Set (AID 1166); conditions: RPMI8226 myeloma viability, higher = more signal;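 further: cells grown under basal conditions without added stimulus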
// assign satisfied if z-score falls strictly below -0.2, else not satisfied (ties count as not satisfied)

Example entries and their recorded answers appear below.
CC(C)=CCCC(C)=CCON=C1C[C@@H](O)[C@@H](O)[C@@H]2[C@@H]3C(=O)N(c4cccc(Oc5ccccc5)c4)C(=O)[C@@H]3CC[C@H]12
not satisfied
CCCC[C@H]1CN2[C@@H](CC[C@@H](C)[C@@H]2c2ccc(Br)cc2)C(=O)O1
satisfied
CC(CCC(=O)OC[C@H]1O[C@H](C#Cc2ccccc2)C=C[C@@H]1Oc1ccc(C)cc1)=NOC(C)CN1CCCc2nc(C)c(C)cc21 (stereo partly drawn)
satisfied
CC(CCC(=O)OC[C@H]1O[C@H](C#Cc2ccccc2)C=C[C@@H]1Oc1ccc(C)cc1)=NO[C@@H](C)c1cc(-c2c(C)cc(C)cc2C)no1
satisfied
C[C@@H]1CC[C@@H](C(=O)O)N[C@H]1c1cccc(N2CCOCC2)c1
not satisfied

Asked: Is z-score strictly under -0.2 for the entry CCOC(=O)NN=C1C[C@@H](O)[C@@H](O)[C@@H]2[C@@H]3C(=O)N(CC)C(=O)[C@@H]3CC[C@H]12 ?
Given back: not satisfied

Asked: Does the reported z-score of the following compound sit strictly below -0.2? CC(C)=NOC[C@@H](O)[C@H]1O[C@@H]2OC(C)(C)O[C@@H]2[C@H]1O
Given back: not satisfied

Asked: Criterion: z-score strictly below -0.2. Is it met by CC(CCN1CCc2nc(-c3ccccc3)c(-c3ccccc3)cc2C1)=NO[C@@H](C)c1cc(-c2c(C)cc(C)cc2C)no1 ?
Given back: satisfied

* * *

test: small-molecule microarray binders of probe aXIP, primary screen, biochemical, NeuroSMM set, 635/667 nm fluorescence (AID 1119); conditions: higher = more signal, called active from +8 up or from −8 down;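 further: probe is the protein aXip251-270 applied at 1 µg/mL to compound-printed slides; binding of probe to printed compounds measured as 667 nm fluorescence plus signal to noise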
Give yes when the value for composite Z-score is at least 0.3. Give no when it is less.

Worked set:
COC(=O)C1=C(C)N(Cc2ccccc2)C2=C3C(=O)OCC[C@@H]3[C@@](O)(C(=O)OC)C(=O)N2[C@@H]1c1ccccc1
no
CC(C)=CCCC(C)=CCON=C1C[C@@H](O)[C@@H](O)[C@@H]2[C@@H]3C(=O)N(Cc4ccc5c(c4)OCO5)C(=O)[C@@H]3CC[C@H]12
no
COC(=O)C(C(=O)OC)C1CCCC(=O)C1 (stereo not drawn)
yes
COc1ccc(O[C@H]2C=C[C@@H](c3ccccc3)O[C@@H]2CON=C(C)CCN2CCCc3nc(C)c(C)cc32)cc1
yes

Asked: Assess whether reported composite Z-score for COC(OC)[C@@H](C)[C@H](OC)[C@@H](C)[C@H](OC)c1ccccc1 sits at 0.3 or higher.
Given back: no

* * *

test system: Lefty1; assay: Lefty1 binders on small-molecule microarrays, primary screen, biochemical, small-molecule microarray, 635/667 nm fluorescence (AID 1139); details: small-molecule microarray binding, fluorescence 635/667; higher = more signal
Decision: composite z-score compared against 0.7; not below it gives YES, below it gives NO.

Completed entries (count: 3):
C=CC[C@@H]1C=CC(ON=C(C)C)[C@@H](CO)O1 (some centres not stated)
NO
COC(=O)[C@H](C)NC(=O)CCC1CC(OC(=O)NCCc2ccc(F)cc2)CC2(CCCC(COC(=O)NCCc3ccccc3OC)O2)O1 (some centres not stated)
NO
C=CC[C@@H]1C=C[C@H](ON=CC[C@@H]2C=C[C@H](OC(C)=O)[C@@H](COC(C)=O)O2)[C@@H](CO)O1
YES

We now examine a further compound.
Asked: Is reported composite z-score greater than or equal to 0.7 here: O=C1C2=CC[C@H]3C(=O)N(C4CCCCC4)C(=O)[C@H]3[C@H]2[C@H](O)[C@@H]2O[C@H]12
Given back: NO

* * *

system: XIP peptide (Xip251-270); test: small-molecule binders of XIP peptide, primary screen, biochemical, small-molecule microarray, fluorescence 635/667 nm, 0.5 µg/mL protein (AID 1183); settings: small-molecule microarray binding, fluorescence 635 nm; higher = more signal
Please note: t applies when composite z-score is 0.3 or greater, and f applies otherwise.

Some entries whose results are on file:
CC=CC1=C(CO)[C@H](O)[C@H]2O[C@H]2[C@@H]1O
t
COC(=O)[C@H](C)NC(=O)CCC1CC(OC(=O)NCc2ccc3c(c2)OCO3)CC2(CCCC(COC(=O)NCc3ccccc3)O2)O1 (stereo partly specified)
t
CO[C@H]1COC(=O)CC=C[C@@H](C)COC(=O)[C@H]2CCCN2C(=O)CC=C[C@H]1C
f

Asked: Kindly determine if composite z-score recorded for CC(C)=NO[C@H](C)c1cn([C@@H]2COC[C@H]2O)nn1 is above or exactly 0.3.
Given back: f

Asked: Confirm if composite z-score reported for the compound CN1CCc2nc(-c3ccccc3)c(-c3ccccc3)cc2C1 is 0.3 or above.
Given back: f

Asked: Is reported composite z-score greater than or equal to 0.3 here: C=CC[C@@H]1C=C[C@H](ON=C2C[C@@H](O)[C@@H](O)[C@@H]3[C@@H]4C(=O)N(CC)C(=O)[C@@H]4CC[C@@H]23)[C@@H](CO)O1
Given back: f

Asked: For this compound, is measured composite z-score 0.3 or higher? COC(=O)CC=C1c2ccccc2[C@H](OC)[C@H]1C
Given back: f

Asked: Does composite z-score meet or surpass 0.3 for COc1ccc(O[C@H]2C=C[C@@H](c3ccccc3)O[C@@H]2COC(=O)NCc2cccc3ccccc23)cc1 ?
Given back: f

Asked: Textbook exercise: given the entry CC(=O)OC[C@H]1O[C@H](CCON=C(C)C)C=C[C@@H]1OC(C)=O , state whether its composite z-score is greater than or equal to 0.3.
Given back: f

Asked: Test whether the compound C=CC[C@@H]1C=C[C@H](Oc2ccc(C)cc2)[C@@H](COC(=O)NCc2cccc3ccccc23)O1 records composite z-score of 0.3 or higher.
Given back: t

Asked: Form field: composite z-score at least 0.3? Entry: CCN1C(=O)[C@H]2[C@H]3[C@H](O)[C@H](O)CC(=NNC(=O)OCc4ccccc4)[C@@H]3CC[C@H]2C1=O
Given back: f

Asked: Tell me whether composite z-score is at least 0.3 here: CO[C@@H]1C=CCC(=O)N[C@@H](C)C(=O)OC[C@@H](OC)[C@H](C)C=CCC(=O)OC[C@H]1C
Given back: t

* * *

system: Sonic hedgehog protein (Shh); assay: small-molecule binders of Shh protein, primary screen, biochemical, small-molecule microarray, 635/667 nm fluorescence (AID 1151); conditions: small-molecule microarray binding, 635 nm fluorescence; higher = more signal;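 further: Shh protein binding to compounds spotted on small-molecule microarray slides; score combines spot fluorescence intensity with signal-to-noise across triplicate slides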
So I've got a bunch of compounds here, and I need their composite z-score values.
Answers are plain numbers.

CC(C)(C)N1C(=O)[C@H]2[C@H]3[C@H](O)[C@H](O)CC(=NNC(=O)OCc4ccccc4)[C@H]3CC[C@H]2C1=O
0.897

For every listed record, write down its composite z-score.
1. CC(C)C(=O)N[C@H]1CCCN1C(=O)C=Cc1ccccc1
2. COC(=O)[C@H](C)NC(=O)CCC1CC(OC(=O)NCCc2ccc(F)cc2)CC2(CCCC(COC(=O)NCCc3ccccc3OC)O2)O1 (stereo not given in full)
3. COC(=O)[C@H](C)NC(=O)CCC1CC(OC(=O)NCc2ccc3c(c2)OCO3)CC2(CCCC(COC(=O)NCCC(C)C)O2)O1 (stereo not given in full)
4. CO[C@H]1COC(=O)CCC[C@H](C)[C@H](OC)COC(=O)CC=C[C@@H]1C
5. O=C1[C@H]2[C@H]3[C@H](O)[C@H](O)CC(=NOC[C@@H](O)COCc4ccco4)[C@@H]3CC[C@H]2C(=O)N1c1cccc(Oc2ccccc2)c1

Given back:
[0.769, 0.985, 1.13, 1.79, 0.537]

For every item in the list below, what is its measured composite z-score?
1. COC(=O)[C@H](C)NC(=O)CC=C[C@@H](C)[C@@H]1C=C[C@H](O)[C@@H](CO)O1
2. O=C1C=C[C@@H](O)[C@@H]2[C@@H]3C(=O)N(Cc4ccccc4)C(=O)[C@@H]3CC[C@@H]12

Given back:
1. 1.39
2. 0.632

Batch: composite z-score for all items listed.
1. CC(=O)OC[C@H]1O[C@H](CC=NOC(C)CN2CCCCc3nc(C)c(C)cc32)C=C[C@@H]1OC(C)=O (stereo not given in full)
2. C[C@@H]1CC[C@H]2C(=O)O[C@@H](COc3ccc(C(C)(C)C)cc3)CN2[C@H]1c1ccc(Br)cc1
3. CC(CCC(=O)OC[C@H]1O[C@H](C#Cc2ccccc2)C=C[C@@H]1Oc1ccc(C)cc1)=NOC[C@@H](C)[C@H](OCc1ccccc1)C(C)C
4. CC(C)=CCCC(C)=CCON=C1[C@H]2CCn3c(=O)n(-c4ccccc4)c(=O)n3[C@H]2[C@H](O)[C@@H]2O[C@H]12

Given back:
1.48
0.526
0.0623
1.38

Look up composite z-score for the entries below, preserving their order.
1. CC(=O)OC[C@H]1O[C@H](CC=NOC(C)CN2CCCc3nc(C)c(C)cc32)C=C[C@@H]1OC(C)=O (stereo not given in full)
2. CCN1C(=O)[C@H]2[C@H]3[C@H](O)[C@H](O)CC(=NOC(C)CN4CCCc5nc(C)c(C)cc54)[C@@H]3CC[C@H]2C1=O (stereo not given in full)

Given back:
1: 1.1; 2: 0.906

Asked: Give the measured composite z-score of O=C1[C@H]2[C@H]3[C@H](O)[C@H](O)CC(=NO[C@@H]4O[C@H](CO)[C@@H](O)[C@H](O)[C@H]4O)[C@@H]3CC[C@H]2C(=O)N1c1cccc(Oc2ccccc2)c1 .
Given back: 0.828
